Recorded values, source patent US20140112915A1.

- test.target: T1, Recombinant human IL-18 (human, UniProt Q14116 37-193)
- T1 sequence: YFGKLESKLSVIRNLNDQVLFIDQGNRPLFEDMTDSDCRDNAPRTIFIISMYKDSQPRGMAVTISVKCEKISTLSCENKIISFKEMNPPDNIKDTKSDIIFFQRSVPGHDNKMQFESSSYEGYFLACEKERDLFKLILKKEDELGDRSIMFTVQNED
- procedure.details: cell-based or functional assay
The reader will find reported IC50, inhibition of IFN-γ release, KG-1 cells, Hu IL-18 (0.5 nM) values listed item by item below.
Respond with the bare value in nM.

Answered cases to consult:
{"columns": ["binder", "units.symbol", "endpoint.value"],
 "data": [
  ["MOR13347 (antibody, human IgG1, kappa, L234A L235A, V domains shown) VH: QVQLVQSGAEVKKPGSSVKVSCKASGGTFSTFSISWVRQAPGQGLEWMGGIIPIFGTANYAQKFQGRVTITADESTSTAYMELSSLRSEDTAVYYCARGGYGGYYYFDYWGQGTLVTVSS VL: DIQMTQSPSSLSASVGDRVTITCRASQSISNRLNWYQQKPGKAPKLLIYKGSTLQSGVPSRFSGSGSGTDFTLTISSLQPEDFATYYCQQHYQWLTTFGQGTKVEIKR", "nM", 0.12],
  ["MOR13342 (antibody, human IgG1, kappa, L234A L235A, V domains shown) VH: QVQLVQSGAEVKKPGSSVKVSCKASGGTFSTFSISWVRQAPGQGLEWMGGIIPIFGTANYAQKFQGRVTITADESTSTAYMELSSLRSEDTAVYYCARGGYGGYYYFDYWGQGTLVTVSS VL: DIQMTQSPSSLSASVGDRVTITCRASQSISNRLNWYQQKPGKAPKLLIYKGSTLQSGVPSRFSGSGSGTDFTLTISSLQPEDFATYYCQQHYVWSTTFGQGTKVEIKR", "nM", 0.11],
  ["MOR13341 (antibody, human IgG1, kappa, L234A L235A, V domains shown) VH: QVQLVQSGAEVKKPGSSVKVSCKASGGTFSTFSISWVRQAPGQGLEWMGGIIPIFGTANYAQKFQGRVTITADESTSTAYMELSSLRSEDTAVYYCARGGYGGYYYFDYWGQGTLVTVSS VL: DIQMTQSPSSLSASVGDRVTITCRASQSISNRLNWYQQKPGKAPKLLIYKGSTLQSGVPSRFSGSGSGTDFTLTISSLQPEDFATYYCQQHKVWLTTFGQGTKVEIKR", "nM", 0.13],
  ["MOR13363 (antibody, human IgG1, kappa, L234A L235A, V domains shown) VH: QVQLLESGGGLVQPGGSLRLSCAASGFTFSSYAIHWVRQAPGKGLEWVSVISGEGSNTYYADSVKGRFTISRDNSKNTLYLQMNSLRAEDTAVYYCARVMIGYGFDYWGQGTLVTVSS VL: DIQMTQSPSSLSASVGDRVTITCRASQSIFNYLNWYQQKPGKAPKLLIYDSSTLQSGVPSRFSGSGSGTDFTLTISSLQPEDFATYYCLQYSGFLFTFGQGTKVEIKR", "nM", 0.49]
]}

// next entry
Reported IC50, inhibition of IFN-γ release, KG-1 cells, Hu IL-18 (0.5 nM) ( MOR13361 (antibody, human IgG1, kappa, L234A L235A, V domains shown) VH: QVQLLESGGGLVQPGGSLRLSCAASGFTFSSYAIHWVRQAPGKGLEWVSTIQSSGENKFYADSVKGRFTISRDNSKNTLYLQMNSLRAEDTAVYYCARVMIGYGFDYWGQGTLVTVSS VL: DIQMTQSPSSLSASVGDRVTITCRASQSIFNYLNWYQQKPGKAPKLLIYDSSTLQSGVPSRFSGSGSGTDFTLTISSLQPEDFATYYCHQYSGLLFTFGQGTKVEIKR ) = 0.41
